- Procedure text: Pharmacokinetic study in rats after oral administration of cinobufacini capsule (UPLC-MS/MS of plasma)
- Assay type: in vivo, rat
- Experimental context: male, Sprague-Dawley, in vivo; rat plasma, oral cinobufacini capsule 3.6 g/kg (high), mean ± SD, n = 6; read-out: Vz/F
Decide using Vd/F alone. Strictly below 4 L/kg: rule met. Equal to or above 4 L/kg: rule not met.

Field: example entries. Status: answers known.
C[C@]12CC[C@H](O)C[C@@]1(O)CC[C@@H]1[C@@H]2CC[C@]2(C)[C@@H](c3ccc(=O)oc3)[C@@H](O)[C@H]3O[C@]132; rule not met
C[C@]12CC[C@H](O)C[C@H]1CC[C@@H]1[C@@H]2[C@H](O)C[C@]2(C)[C@@H](c3ccc(=O)oc3)CC[C@]12O; rule met

Data request: Field: below-cutoff. Rule: recorded Vd/F strictly less than 4 L/kg. Subject: C[C@]12CC[C@H](O)C[C@@]1(O)CC[C@@H]1[C@@H]2CC[C@]2(C)[C@@H](c3ccc(=O)oc3)CC[C@]12O
Data returned: rule met

Data request: Input C[C@]12CC[C@H](O)C[C@H]1CC[C@@H]1[C@@H]2C(=O)[C@@H](O)[C@]2(C)[C@@H](c3ccc(=O)oc3)CC[C@]12O
Data returned: rule not met

Data request: Repeat for the following compound: C[C@]12CC[C@H]3[C@@H](CC[C@]4(O)C[C@@H](O)CC[C@]34C=O)[C@@]1(O)CC[C@@H]2c1ccc(=O)oc1
Data returned: rule not met

Data request: Also, C[C@]12CC[C@H](O)C[C@H]1CC[C@@H]1[C@@H]2CC[C@]2(C)[C@@H](c3ccc(=O)oc3)[C@@H](O)[C@H]3O[C@]132 please.
Data returned: rule met

Data request: Then what about the compound C[C@]12CC[C@H](O)C[C@H]1CC[C@@H]1[C@@H]2[C@H](O)C(=O)[C@]2(C)[C@@H](c3ccc(=O)oc3)CC[C@]12O ?
Data returned: rule not met

Data request: Also C[C@]12CC[C@H](O)C[C@H]1CC[C@@H]1[C@@H]2CC[C@]2(C)[C@@H](c3ccc(=O)oc3)CC[C@]12O , if possible.
Data returned: rule met
